# run description: qHTS assay to identify small molecule agonists of the hypoxia (HIF-1) signaling pathway - cell viability counter screen (AID 1224844); further: on the % scale 0 is the no-effect control and ±100 the full control effect; nearly all actives have a fitted effect of over 50% in size
# condition notes: HRE-bla ME-180 viability, CellTiter-Glo luminescence, 17 h; series mostly up to 76.8 µM
Inconclusive results are not listed. Activity calls are given as the source filed them. The call rests on the fitted dose curve.
In this exercise, the only acceptable responses are active, inactive

O=[N+]([O-])c1ccc(O)c([N+](=O)[O-])c1: inactive

For "Nn1cnnc1" , which call appears in the assay record? inactive

###

# run description: qHTS assay to identify small molecule agonists of the NFkB signaling pathway (AID 1159509); further: on the % scale 0 is the no-effect control and ±100 the full control effect
# condition notes: NFkB-bla ME-180 cells, beta-lactamase FRET ratio, 5 h; series mostly up to 61 µM
Inconclusive results are not listed. Active and inactive are the calls of the source. Calls come from the whole dose curve; as a rule, active = well fitted curve in the direction sought with a large enough effect in the signal ratio in the repeat runs (not every such curve was filed as active); inconclusive = weak or mixed curves, or a change in a side signal; inactive = no such curve, though single readings can be large or run the other way; the % refers to the signal ratio.
reported metric: outcome

CC(C)C(=O)OCC(C)(C)C(OC(=O)C(C)C)C(C)C (configuration not stated): inactive
c1cc(OCC2CO2)ccc1Cc1ccc(OCC2CO2)cc1 (configuration not stated): inactive
CCCCN(CC)c1c([N+](=O)[O-])cc(C(F)(F)F)cc1[N+](=O)[O-]: inactive
NNC(=S)NN: inactive
NC(=S)Nc1ccccc1: inactive
O=Cc1ccco1: inactive

# evaluate next
Quick one: outcome for CCCCC(CC)COC(=O)c1ccc(C(=O)OCC(CC)CCCC)c(C(=O)OCC(CC)CCCC)c1 (configuration not stated) ? inactive

###

# run description: qHTS assay to identify small molecule agonists of the vitamin D receptor (VDR) signaling pathway - cell viability counter screen (AID 743224); further: on the % scale 0 is the no-effect control and ±100 the full control effect; nearly all actives have a fitted effect of over 50% in size
# condition notes: VDR-bla HEK293T viability, CellTiter-Glo luminescence, 16 h; series mostly up to 62.6 µM
Inconclusive results are not listed. The source made the active and inactive calls. The call rests on the fitted dose curve; in most records, active means well fitted cell-killing curve with a large enough effect in the repeat runs; inconclusive means weak or mixed curves, or effect the other way; inactive means no such curve, though single readings can be large or run the other way.
In this exercise, the only acceptable responses are label 1 for active, label 0 for inactive

Recorded results for 8 compounds are shown here.
c1ccc(-c2cccc(-c3ccccc3)c2)cc1: label 0
COP(=S)(OC)Oc1cc(Cl)c(Cl)cc1Cl: label 0
S=C1NCCN1: label 0
CCCCCCCCC(=O)NCc1ccc(O)c(OC)c1: label 0
N#Cc1cc(Br)c(O)c(Br)c1: label 0
CC(C)c1ccc(CO)cc1: label 0
CC(C)(C)c1ccccc1O: label 0
C[C@]12CCC(=O)C[C@@H]1CC[C@@H]1[C@@H]2CC[C@]2(C)[C@@H](O)CC[C@@H]12: label 0

For "Cc1c(COC(=O)[C@@H]2[C@H](/C=C(\Cl)C(F)(F)F)C2(C)C)cccc1-c1ccccc1" , which call appears in the assay record? label 0

Same read-out for "Oc1cc(Cl)c(Cl)cc1Cl" ? label 0

###

# run description: qHTS assay to identify small molecule antagonists of the constitutive androstane receptor (CAR) signaling pathway - cell viability counter screen (AID 1224837); further: on the % scale 0 is the no-effect control and ±100 the full control effect; nearly all actives have a fitted effect of over 45% in size
# condition notes: HepG2-CYP2B6-hCAR viability, CellTiter-Fluor, 23 h, co-treated with 50 nM CITCO; series mostly up to 92.4 µM
Inconclusive results are not listed. Calls of active or inactive are those of the source. Calls follow the shape of the dose curve; as a rule, active = well fitted cell-killing curve with a large enough effect in the repeat runs; inconclusive = weak or mixed curves, or effect the other way; inactive = flat fitted curve, though single readings scatter.
reported metric: outcome

CCOc1cc(Oc2ccc(C(F)(F)F)cc2Cl)ccc1[N+](=O)[O-]: inactive
COP(=S)(OC)Oc1ccc([N+](=O)[O-])cc1: inactive
CCCCCCCCC(=O)NCc1ccc(O)c(OC)c1: inactive
c1ccc(P(c2ccccc2)c2ccccc2)cc1: inactive

Quick one: outcome for "OCC(O)CO" ? inactive

Same read-out for "O=C(NC(=O)c1c(F)cccc1F)Nc1ccc(Cl)cc1" ? inactive

Same read-out for "N[C@@H](Cc1ccc(N(CCCl)CCCl)cc1)C(=O)O" ? inactive

Same read-out for "CCCCCCCCCCCOC(=O)c1ccccc1C(=O)OCCCCCCCCCCC" ? inactive

Same read-out for "CCOCN(C(=O)CCl)c1c(C)cccc1CC" ? inactive

Same read-out for "c1ccc(NNc2ccccc2)cc1" ? inactive

Same read-out for c1cc(OCC2CO2)ccc1Cc1ccc(OCC2CO2)cc1 (centres undefined) ? inactive

Same read-out for "COP(=O)(OC)OC" ? inactive

Same read-out for CC1(C)C(C=C(Cl)Cl)C1C(=O)OC(C#N)c1cccc(Oc2ccccc2)c1 (centres undefined) ? inactive

Same read-out for "CN(C)C(=O)Nc1ccc(Cl)cc1" ? inactive

Same read-out for ClC1C(Cl)C(Cl)C(Cl)C(Cl)C1Cl (centres undefined) ? inactive

Same read-out for "CC(C)(c1cc(Cl)c(O)c(Cl)c1)c1cc(Cl)c(O)c(Cl)c1" ? inactive

Same read-out for "O=[N+]([O-])c1cccc2ccccc12" ? inactive

Same read-out for CCCCC(CC)COC(=O)c1ccc(C(=O)OCC(CC)CCCC)c(C(=O)OCC(CC)CCCC)c1 (centres undefined) ? inactive

Same read-out for "NC(=S)Nc1ccccc1" ? inactive

Same read-out for "N#Cc1cc(Br)c(O)c(Br)c1" ? inactive

Same read-out for "CCC(C)(c1ccc(O)cc1)c1ccc(O)cc1" ? inactive

Same read-out for "Oc1cc(Cl)c(Cl)cc1Cl" ? inactive

Same read-out for "CNC(=O)N(C)c1nnc(C(C)(C)C)s1" ? inactive

###

# run description: qHTS assay to identify small molecule antagonists of the thyroid receptor (TR) signaling pathway - cell viability counter screen (AID 743064); further: nearly all actives have a fitted effect of over 50% in size; further: potency means the concentration at half of the fitted maximal effect
# condition notes: GH3.TRE-Luc viability, CellTiter-Fluor, 24 h; series mostly up to 70.3 µM
Results filed as inconclusive are left out. The source made the active and inactive calls. The call rests on the fitted dose curve; in most records, active means well fitted cell-killing curve with a large enough effect in the repeat runs; inconclusive means weak or mixed curves, or effect the other way; inactive means no such curve, though single readings can be large or run the other way.
reported metric: Potency

Worked examples, 5 compounds total:
CCN(CC)C(=O)SCc1ccc(Cl)cc1: inactive
N#CCCCl: inactive
COC(=O)c1sccc1S(=O)(=O)NC(=O)Nc1nc(C)nc(OC)n1: inactive
Oc1cc(Cl)c(Cl)cc1Cl: inactive
c1ccc(N=Nc2ccccc2)cc1: inactive

Quick one: Potency for "CC(C)Oc1cc(-n2nc(C(C)(C)C)oc2=O)c(Cl)cc1Cl" ? 53.7 µM (active)

Same read-out for "Nc1ccc(Cl)cc1N" ? 42 µM (active)

Same read-out for "NCc1cccnc1" ? inactive

Same read-out for "O=C(O)C(F)(F)C(F)(F)C(F)(F)C(F)(F)C(F)(F)C(F)(F)C(F)(F)F" ? inactive

Same read-out for "Nc1c(Cl)cc([N+](=O)[O-])cc1Cl" ? inactive

Same read-out for "NNC(N)=S" ? inactive

Same read-out for "CCOP(=S)(OCC)O/N=C(\C#N)c1ccccc1" ? inactive

Same read-out for "CCCCCc1cc(O)cc(O)c1" ? inactive

Same read-out for CC(C)=CC1C(C(=O)OCc2coc(Cc3ccccc3)c2)C1(C)C (centres undefined) ? inactive

###

# run description: qHTS assay to identify small molecule agonists of the progesterone receptor (PR) signaling pathway - cell viability counter screen (AID 1346799); further: nearly all actives have a fitted effect of over 45% in size
# condition notes: PR-UAS-bla HEK293T viability, CellTiter-Glo luminescence, 16 h; series mostly up to 92.4 µM
Records with an inconclusive call do not appear. Active and inactive are the calls of the source. Calls come from the whole dose curve.
In this exercise, the only acceptable responses are active, inactive

O=C(Nc1ccc(Br)cc1)c1cc(Br)cc(Br)c1O: inactive
O=[N+]([O-])c1cccc2ccccc12: inactive
CCN(CC)C(=O)/C(Cl)=C(\C)OP(=O)(OC)OC: inactive
CCCCCCCCCCCOC(=O)c1ccccc1C(=O)OCCCCCCCCCCC: inactive
Cc1ccc(N)c(N)c1: inactive

For "N#CC(Br)Br" , which call appears in the assay record? inactive

Same read-out for "CC(C)c1ccc(CO)cc1" ? inactive

Same read-out for "CCN(CC)N=O" ? inactive

Same read-out for "CCOC(=S)S" ? active

Same read-out for "COc1ccc(C=O)cc1" ? inactive

Same read-out for "COP(=S)(OC)Oc1ccc([N+](=O)[O-])cc1" ? inactive

Same read-out for "C#C[C@]1(O)CC[C@H]2[C@@H]3CCC4=CC(=O)CC[C@]4(C)[C@H]3CC[C@@]21C" ? inactive

Same read-out for "c1ccc(N=Nc2ccccc2)cc1" ? inactive

Same read-out for "Nc1ccc(-c2ccccc2)cc1" ? inactive

###

# test target: Luciferin 4-monooxygenase (Photinus pyralis)
# run description: qHTS assay to identify small molecule inhibitors of firefly luciferase (AID 1224835); further: nearly all actives have a fitted effect of over 25% in size
# condition notes: purified P. pyralis luciferase, luminescence inhibition; series mostly up to 115 µM
Inconclusive results are not listed. Activity calls are given as the source filed them. Calls follow the shape of the dose curve; as a rule, active = well fitted inhibition curve with a large enough effect in the repeat runs; inconclusive = weak or mixed curves; inactive = flat fitted curve, though single readings scatter.
In this exercise, the only acceptable responses are active, inactive

Recorded results for 5 molecules are shown here.
CCC(C)c1ccc(O)cc1 (configuration not stated): active
CCN(CC)N=O: inactive
C=C(C)[C@H]1Cc2c(ccc3c2O[C@@H]2COc4cc(OC)c(OC)cc4[C@@H]2C3=O)O1: inactive
CC(C)C(=O)OCC(C)(C)C(OC(=O)C(C)C)C(C)C (configuration not stated): inactive
O=P(O)(O)CCCl: inactive

For "CCN(CC)C(=O)SCc1ccc(Cl)cc1" , which call appears in the assay record? active

Same read-out for "NC(=S)Nc1ccccc1" ? inactive

###

# run description: qHTS RealTime-Glo MT Cell Viability Assay in HEK293 cells - 8 hour (AID 1224887); further: top concentration of the series differs between compounds; on the % scale 0 is the no-effect control and ±100 the full control effect; nearly all actives have a fitted effect of over 50% in size
# condition notes: RealTime-Glo luminescence; series mostly up to 76.8 µM
Records with an inconclusive call do not appear. Active and inactive are the calls of the source. Calls come from the whole dose curve; as a rule, active = well fitted cell-killing curve with a large enough effect in the repeat runs; inconclusive = weak or mixed curves, or effect the other way; inactive = flat fitted curve, though single readings scatter.
In this exercise, the only acceptable responses are True = active, False = inactive

Recorded results for 3 compounds are shown here.
CNC(=O)N(C)c1nnc(C(C)(C)C)s1: False
Cc1ccccc1[N+](=O)[O-]: False
Oc1cc(Cl)ccc1Cl: False

For CCCCC(CC)COC(=O)Cl (configuration not stated) , which call appears in the assay record? False

Same read-out for "CCCCCCOC(=O)c1ccccc1C(=O)OCCCCCC" ? False
